- assay_details: yeast display, Sf9 membrane polyspecificity reagent, FACS + sequencing; frameworks hold sequencing errors
attribute_measured: polyreactivity (PSR sort gate)

// known answers, use as guide
# primary_sequence, polyreactivity (PSR sort gate)
rows = [
    ("QVQRVESGGGLVQAGGSLRLSCAASGIIFQSYAMGWYRQAPGKERELVAAISRRGRRTYYADSVKGRFTFSRDNAKNTVDLQMTSLKPEDTAVYYCADRYRYAPYDYWGQGTQVTVSS", "high polyreactivity"),
    ("QVQLVESGGGLVQAGGSLRLSCAASGIIFLYYAMGWYRQAPGKERELVAAISRSGGRTFYADSVKGRFTISRDNAKNTVFLQMNSLKAEDTAVYYCAADALIYYKGSPDYYWGQGTQVTVSS", "high polyreactivity"),
    ("QVQLVESGGGLVQAGGSLRLSCAASGRTLQGYAMGWYSQAPGKERELVAAISRGGGSTYADSVKGRFTISRDNAKNTVYLQMNSLKPEDTAVYYCAAVRGIYGGHYFRYDYWGQGTQVTVSS", "high polyreactivity"),
    ("QVQLEESGGGLVQAGGSLRLSCAASGRIFVRNGMGWYRQAPGKESELVPAITSAGSTNYADSVKGRFTISRDNAKNTVYLQMNSLIPEDTAVYYCATEPSGYYDSYYYFTYSDNYWGQGTQVTVSS", "low polyreactivity"),
]

From here, focus on the item given below.
According to the records, this sequence QVQLEESGGGLVQAGGSLRLSCAASGITFSLYVMGWFRPAPGKESELVATISFNVASTYADSVKGRFTISRVNAKNTVYLQMYSLTPEDTAVYYCNADTYWYRDSRYDYCGQGTQVTVSS displays polyreactivity (PSR sort gate) of low polyreactivity

---

- assay_details: yeast display, Sf9 membrane polyspecificity reagent, FACS + sequencing; frameworks hold sequencing errors
attribute_measured: polyreactivity (PSR sort gate)

// known answers, use as guide
# primary_sequence, polyreactivity (PSR sort gate)
records = [
    ("QVQLVESGGGLVQAGGSLRLSCAASGSIFGYYAMGWYRQAPGKERELVAAISSGGNTNYADSVNGRFTISRDNAKITVYLQMTSLKPEDTAVYDCATRARYKRIRYDYWGQGTKVTVSS", "high polyreactivity"),
    ("QVQLVESGGGLVQAGGSLRLSCAASGIIFIYYVMGWYRQAPGKERELVAAISRSGGSTYYADSVKGRFTISRDNAKNTVNLQMNSLKPEDTAVYYCAARRITSTDEYYWGQGTQVTVSS", "high polyreactivity"),
    ("QVQLVESGGGLVQAGGSLRLSCAASGGIFTYYVLGWYRQAPGKERELVAAITIGDSTYYADSVKGRFTISRDNAKNTVYVQINSLKPEDTAVYYCNADPYNTWGFTNGYWGQGTQVTVSS", "low polyreactivity"),
    ("QVQLVESGGGLVQAGGSLRLSCAASGNTFNYYTMGWYRQEPGKERELVAAIRSGGRTYYADSVKGRFTISRDNAKNTVYLLMNSLIPEDTAVYDCAAVAVTYRYDYWGQGTQVTVSS", "high polyreactivity"),
]

Hi, could you look up polyreactivity (PSR sort gate) for each item in my list?
1. HVQLVESGGGLVQAGGSLRLSCAASGRIFGYNAMGWYRQAPGKEREFVATITYNDGSTYYADSVKGRFTMSRDNAKNTVYLQMNSLKPEDTAVYYCAADLIWTVYGWKYDYWGQGTHVTVSS
2. QVQLVESVGGLVQAGGSLRLSCAASGITLYGYAMGWYRQAPGKERELVAAISWRGGRTYYADSVKGRFTISRDNAKNTVYVQMNSLKPEDTAVYYCLARSYYNWYDYWGQGTQVTVSS
3. QEQLVESGGGLVQAGGSLRLSCAASGSTFYANAMGWYRQAPGQERELVAAISWDGGNTYYADSVKGRFTISRDNAKNNVYLQMNSLKPEDTAVYYCARDYYGTVYYYGYDYWGQGTQVTVSS
4. QVQLVESGGGLVQAGGSLRLSCAASGGIFGTYAMGWYRQAPGKEREFVAAITSGDSTYYADSVKGRFTISRDNAKNTVYLQMNSLKPEDTAVYYCAVGSTDRVSAQGSYFTYDYWGQGTQVTVSS
5. QVQLVESGGGLVQAGGCLRLSCAASVRTFYYYAMGWYRQAPGKEMELVAAITSTGGSTYYADSVKGRFTISRDNAKNTVYLQMNSLKPEDTAVYYCNTDPYTTQWYTTWFEYWGQGTQVTVSS
6. QVQLVESGGGLVQAGGSLRLSCAASGSIFGSNAMGWYIQAPGKERELVAAITWSDGSTYYADSVKGRFTISRDNAKNTVYLQMNSLKPEDTAVYYCAADSWWGIYYSGYDYWGQGTQVTVSS
7. QVQLVESGGGLVQAGGSLRLSCAASGFTLYSNTMGWYRQATGKERELVAAINYSGGSTYYADSVKGRFTISRDNAKNTVYLQMNSLKPEDTPVYYCATDLHWLVTKYGYWGQGTQVTVSS
8. QVHLVDSAGGLVQAGGSLRLSCAASGNIFDYNGMGWYRQAPGKERELVAGINWSGGSTYYADSVKGRFTISRDNAKNTVYLQMNSLTPEDTAVYYCAAECVYDWYPFWRAIYTYDYWGQGTQVTVSS

1: low polyreactivity; 2: high polyreactivity; 3: low polyreactivity; 4: low polyreactivity; 5: low polyreactivity; 6: low polyreactivity; 7: low polyreactivity; 8: low polyreactivity

Hi, could you look up polyreactivity (PSR sort gate) for each item in my list?
1. QVQLVESVGALVQAGGSLRLSCAASGSTFRRNAMGWYRQAPGKERELVATITTRGGSTYYADSVKGRFTLSRDNAKNTVNLQMNSLKPEDTAVYYCAADRRSGYSRSKYGRGDYWGQGTQVTVSS
2. QVQLVESGGGLVQAGGSLRLSCAASGLTFKDNAMGWYRQAPGKERELVAAISKGGGSTFYADSVKGRFTISRDNAKNTVYLQMNSLKPEDTAVYYCNADVGYRGGEEDYWGQGTQVTVSS
3. QVQHVESGGGLVQAGGSLRLSCAASGRTLSFYAMGWYRQAPGKERELVAAINYSGGRTSYADSVKGRFTISRDNAKNTVYLQMNSLKPEDTAVYYCAKGVYPWGVYYWGQGTQVTVSS
4. QVQLVESGGGLVQAGGSLRLSCGASGRTFYSYAMGWYRQEHGKERELVATITNGDTTNYADSVKGRFTISRDNAKNTVYLQMNSLKQEDTAVYYCAKDISPGYDEYDYWGQGTQVTVSS
5. QVQLVESGGGLVQAGGSLRLSCAASGGTFTGYAMGWYRQEPGKERELVAGISRSGGSTYYADSVKGRFTISRDNAKNTVYLQMNSLKPEDTAVYYCAKDVLKYRYWYYPGYDYWGQGTQVTVSS
6. QVQLVESGGGLVQAGGSLRFSCAASGSIIYFYAMGWYRQAPGKERELVATITSGGRTYYADSVKGRFTISRDTAKNTVYLQMNSLKPEDTAVYYCNRRPVSYRYSSYNYDYLGQGTQVTVSS

["high polyreactivity", "low polyreactivity", "low polyreactivity", "low polyreactivity", "high polyreactivity", "high polyreactivity"]

Hi, could you look up polyreactivity (PSR sort gate) for each item in my list?
1. QVQLVESGGGLVQAGGSLRLSCAASGRIFSRNTMGWYRQATGKEREFVAAISQSGGRTYYADSVKGRFTISRDNAKNNVYLQMNSLKPEDTAVYYCAARSRGYDIRYGYWGQGTQVTVSS
2. QVQLVESGGGLVQAGGSLRLSCAASGSTFRYNAMGWYRQAPGKERELVAGITSSGGTYADSVKGRFTISRDNAKNTVSLQMNSLKPEDTAVYSCAAEYNWYDYWGQGTQVTVSS
3. QVQLVESCGGLVQAGGSLRLSCAASGGTIVFYAMGWYRQAPGKERELVAAISSSGGSTYYADSVKGRFTISRDNAKNTVYLQMNSLKPEDTAVYYCNTPSYSGSSPYDHWGQGTQVTVSS

1: high polyreactivity; 2: low polyreactivity; 3: high polyreactivity
